Experiment: Acute toxicity (LD50) in the male mouse, intraperitoneal and oral routes
Details: mouse, in vivo, po
Quantity Kind: LD50 (mg/kg)

In [3]: df
Out[3]:
                                   compound  quantity_kind  unit_of_measurement  reading
0  O=C(O)O [Lithium carbonate, reference compound]           LD50                mg/kg      162

* * *

Experiment: in vivo
Details: mouse, in vivo, po, LD50
Quantity Kind: LD50 (mg/kg)

                                   compound  quantity_kind  reading
0  CC(=O)NCCS(=O)(=O)O [Example 3, N-acetyl-taurinate of lithium]           LD50     6630
